System: U87MG cells
Assay remarks: Inhibition of in vitro proliferation of U87MG cells (CTG)
Type: cell-based
Condition: Homo sapiens, U-87 MG, 144 h; in vitro proliferation, 6 days, CTG; read-out: IC50 (nM) U87
Kindly state IC50 for each of the entries shown.
Give the number; nM is assumed, so skip it.

Noted for `CC[C@@]1(O)C(=O)OCc2c1cc1n(c2=O)Cc2c-1nc1cc(F)c(C)c3c1c2[C@@H](NC(=O)C1(CO)CCC1)CC3` : its IC50 reads 1.83

Noted for `CC[C@@]1(O)C(=O)OCc2c1cc1n(c2=O)Cc2c-1nc1cc(F)c(C)c3c1c2[C@@H](NC(=O)C1(O)CCC1)CC3` : its IC50 reads 1.95

Noted for `CC[C@@]1(O)C(=O)OCc2c1cc1n(c2=O)Cc2c-1nc1cc(F)c(C)c3c1c2[C@@H](NC(=O)[C@H](O)C1CC1)CC3` : its IC50 reads 0.86
